Tested System: human CB1 receptor (Homo sapiens, UniProt P21554)
Construct: expressed in transfected cells; host or cells: human embryonic kidney (HEK) cells, Semliki Forest Virus system, membrane preparations
Sequence (P21554 whole entry): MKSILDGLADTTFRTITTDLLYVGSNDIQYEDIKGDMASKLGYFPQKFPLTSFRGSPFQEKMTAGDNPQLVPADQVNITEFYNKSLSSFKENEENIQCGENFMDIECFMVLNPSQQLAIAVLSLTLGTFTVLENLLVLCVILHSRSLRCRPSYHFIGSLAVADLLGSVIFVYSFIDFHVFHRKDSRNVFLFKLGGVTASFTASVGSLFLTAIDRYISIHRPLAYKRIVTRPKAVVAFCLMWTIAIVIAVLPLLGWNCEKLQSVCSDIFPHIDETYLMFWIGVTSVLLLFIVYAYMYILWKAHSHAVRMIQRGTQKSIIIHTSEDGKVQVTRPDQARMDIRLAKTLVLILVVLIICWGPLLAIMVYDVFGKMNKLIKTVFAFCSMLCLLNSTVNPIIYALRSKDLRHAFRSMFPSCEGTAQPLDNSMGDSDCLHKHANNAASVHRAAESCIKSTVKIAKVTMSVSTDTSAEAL
Assay Comment: CB1 receptor affinity ([3H]-CP-55,940 displacement, HEK cell membranes)
Assay type: binding
Run Conditions: displacement of radioligand [3H]-CP-55,940
Experimental: The affinity of the compounds of the invention for cannabinoid receptors was determined using membrane preparations of human embryonic kidney (HEK) cells in which the human CB1 receptor is transiently transfected using a Semliki Forest Virus system in conjunction with [3H]-CP-55,940 as radioligand. […] Radioactivity on the filter was measured by scintillation counting. […]
Would you mind labelling by inhibition at 10 µM? At or over 20% is yes (1), under is no (0).

Q: Please check the record O=C(Nc1cnc(OCC(F)(F)F)c(-c2ccc(Cl)cc2)c1)c1ccncn1 and state if its inhibition at 10 µM is at or above 20%.
Result: yes (1)

Q: How about CCCC(=O)Nc1cnc(OCC(F)(F)F)c(-c2ccc(Cl)cc2)c1 ?
Result: yes (1)

Q: How about O=C(Nc1cnc(OCC(F)(F)F)c(-c2ccc(Cl)c(F)c2)c1)c1cccnn1 ?
Result: no (0)

Q: How about CO[C@H](C)C(=O)Nc1cnc(OCC(F)(F)F)c(-c2ccc(Cl)cc2)c1 ?
Result: yes (1)

Q: How about Cc1cc(C(=O)Nc2cnc(OCC(F)(F)F)c(-c3ccc(Cl)cc3)c2)n[nH]1 ?
Result: no (0)

Q: How about O=C(Nc1cnc(OCC(F)(F)F)c(-c2ccc(Cl)cc2)c1)c1ccccn1 ?
Result: no (0)

Q: How about CO/N=C(\C)C(=O)Nc1cnc(OCC(F)(F)F)c(-c2ccc(Cl)cc2)c1 ?
Result: yes (1)

Q: How about O=C(Nc1cnc(OCC(F)(F)F)c(-c2ccc(Cl)cc2)c1)[C@H]1CCOC1 (racemic) ?
Result: yes (1)

Q: How about CC(=O)Nc1cnc(OCC(F)(F)F)c(-c2ccc(Cl)cc2)c1 ?
Result: no (0)

Q: How about O=C(Nc1cnc(OCC(F)(F)F)c(-c2ccc(F)c(Cl)c2)c1)c1cncnc1 ?
Result: yes (1)

Q: How about O=C(Nc1cnc(OCC2CC2)c(-c2ccc(Cl)cc2)c1)c1ccncc1 ?
Result: yes (1)

Q: How about O=C(Nc1cnc(OCC(F)(F)F)c(-c2ccc(Cl)cc2)c1)c1cc[nH]n1 ?
Result: yes (1)

Q: How about Cc1cc(-c2cc(NC(=O)c3ccnc(O)c3)cnc2OCC(F)(F)F)ccc1Cl ?
Result: no (0)

Q: How about Cc1ccc(C(=O)Nc2cnc(OCC(F)(F)F)c(-c3ccc(Cl)cc3)c2)cn1 ?
Result: yes (1)

Q: How about O=C(Nc1cnc(OCC(F)(F)F)c(-c2ccc(Cl)cc2)c1)c1cncnc1 ?
Result: yes (1)

Q: How about Cc1nn(C)cc1C(=O)Nc1cnc(OCC(F)(F)F)c(-c2ccc(Cl)cc2)c1 ?
Result: yes (1)

Q: How about O=C(Nc1cnc(OC2CCC2)c(-c2ccc(Cl)cc2)n1)c1cccnc1 ?
Result: yes (1)

Q: How about Cc1nnsc1C(=O)Nc1cnc(OCC(F)(F)F)c(-c2ccc(Cl)cc2)c1 ?
Result: yes (1)
